tested on: M19-MEL melanoma; assay: NCI tumour cell line growth inhibition, 48 h
quantity.name: TGI (µM)
Form entry: value (µM) — number only.

{"query.smiles": "O=C(O)/C(=C/c1c(O)ccc2ccccc12)c1csc(-c2nc(/C(=C\\c3c(O)ccc4ccccc34)C(=O)O)cs2)n1", "TGI, µM": 19.9}

query: Item under review: COC1=C(N=[N+]=[N-])C(=O)c2ncccc2C1=O . Reported TGI?
result: 3.8

* * *

test system: A549 NSCLC
Bench note: report the call from active, inactive

Answered examples (2):
{"query.smiles": "CCOC(=O)c1[nH]c(-c2ccc(Cl)cc2)cc1-c1cccnc1", "assigned.category": "inactive"}
{"query.smiles": "COc1ccc2c(Nc3ccc(NS(C)(=O)=O)cc3)c3ccccc3nc2c1", "assigned.category": "active"}

Continue with the molecule presented below.
query: Which outcome was assigned to O=C(NCCCNc1cc(-c2cn(-c3ccccc3)nc2-c2cccc(O)c2)ccn1)c1ccccc1 in this test?
result: inactive
